Where do these numbers come from? They come from PubChem BioAssay (NCI).

- System: SK-OV-3 ovarian
- assayName: NCI-60 one-dose screen, 48 h (100 = growth as untreated, 0 = no growth, -100 = all killed)
- details: 10 µM unless noted
The panel holds about 83,000 compounds, 20% with a hit somewhere; the sample as a whole holds those more often.
Quick reference for growth among some molecules
Give your result in % as a bare value.

molecule: COC(=O)c1nc(-c2ccccc2)oc1S(=O)(=O)n1nc(-c2ccccc2)cc1N
growth / %: 106
//
molecule: CC(C)(C#N)c1cc(F)cc(C(=O)Nc2cc(Nc3ncccc3-c3ncnc4nc[nH]c34)ccc2F)c1
growth / %: 63.7
//
molecule: CN1CC=C(c2cc(NC(=O)Nc3ccc(Oc4ccnc(NC(=O)C5CC5)c4)c(F)c3)cc(C(F)(F)F)c2)CC1
growth / %: 17.1
//
molecule: Nc1c(C(=O)Nc2ccccc2Cl)sc2nc3c(cc12)CN(Cc1ccccc1)CC3
growth / %: 91.2

Task: Can you share its growth? I mean this molecule: `CCOCc1cc(C(C)(C)C)ccc1O`
Result: 97.8

Task: Same lookup for `c1ccc2nc(N3CCOCC3)c(N3CCCCC3)nc2c1` , please.
Result: 101
